Hello, the source for this data is ChEMBL document CHEMBL1143093, in case you need it.

experiment: Metabolic stability in human liver microsomes assessed as systemic clearance; type: ADME, Microsome
property_name: CLhep predicted

[
  {
    "smiles_record": "C#CCN(CC=C)C(=O)[C@@]1(c2ccsc2)C[C@H]1CN",
    "CLhep predicted": "< 2.6 mL/min/kg"
  },
  {
    "smiles_record": "C#CCN(CC#C)C(=O)[C@@]1(c2ccsc2)C[C@H]1CN",
    "CLhep predicted": "< 2.6 mL/min/kg"
  },
  {
    "smiles_record": "C=CCN(CC)C(=O)[C@@]1(c2ccsc2)C[C@H]1CN",
    "CLhep predicted": "6.8 mL/min/kg"
  },
  {
    "smiles_record": "NC[C@@H]1C[C@@]1(C(=O)N1C=COc2ccccc21)c1ccsc1",
    "CLhep predicted": "13 mL/min/kg"
  }
]

# CLhep predicted (molecule: `CCN(CC)C(=O)[C@@]1(c2ccsc2)C[C@H]1CN` ) is 7.1 mL/min/kg

# CLhep predicted (molecule: `C#CCN(CCOC)C(=O)[C@@]1(c2ccsc2)C[C@H]1CN` ) is < 2.6 mL/min/kg

# CLhep predicted (molecule: `C=C(F)CN(C)C(=O)[C@@]1(c2ccsc2)C[C@H]1CN` ) is < 2.6 mL/min/kg

# CLhep predicted (molecule: `C=CCN(CCOC)C(=O)[C@@]1(c2ccsc2)C[C@H]1CN` ) is < 2.6 mL/min/kg

# CLhep predicted (molecule: `C=C(F)CN(CCOC)C(=O)[C@@]1(c2ccsc2)C[C@H]1CN` ) is < 2.6 mL/min/kg

# CLhep predicted (molecule: `C=CCN(CC=C)C(=O)[C@@]1(c2ccsc2)C[C@H]1CN` ) is 4.7 mL/min/kg

# CLhep predicted (molecule: `NC[C@@H]1C[C@@]1(C(=O)N1Cc2ccccc2C1)c1ccsc1` ) is 10 mL/min/kg

# CLhep predicted (molecule: `C=CCN(C(=O)[C@@]1(c2ccsc2)C[C@H]1CN)C1CC1` ) is < 2.6 mL/min/kg

# CLhep predicted (molecule: `CCN(CC)C(=O)[C@]1(c2ccccc2)C[C@@H]1CN` ) is < 2.6 mL/min/kg

---

Below are compounds with their IC50 as measured on Sodium-dependent serotonin transporter (Homo sapiens).
Sequence (P31645 whole entry): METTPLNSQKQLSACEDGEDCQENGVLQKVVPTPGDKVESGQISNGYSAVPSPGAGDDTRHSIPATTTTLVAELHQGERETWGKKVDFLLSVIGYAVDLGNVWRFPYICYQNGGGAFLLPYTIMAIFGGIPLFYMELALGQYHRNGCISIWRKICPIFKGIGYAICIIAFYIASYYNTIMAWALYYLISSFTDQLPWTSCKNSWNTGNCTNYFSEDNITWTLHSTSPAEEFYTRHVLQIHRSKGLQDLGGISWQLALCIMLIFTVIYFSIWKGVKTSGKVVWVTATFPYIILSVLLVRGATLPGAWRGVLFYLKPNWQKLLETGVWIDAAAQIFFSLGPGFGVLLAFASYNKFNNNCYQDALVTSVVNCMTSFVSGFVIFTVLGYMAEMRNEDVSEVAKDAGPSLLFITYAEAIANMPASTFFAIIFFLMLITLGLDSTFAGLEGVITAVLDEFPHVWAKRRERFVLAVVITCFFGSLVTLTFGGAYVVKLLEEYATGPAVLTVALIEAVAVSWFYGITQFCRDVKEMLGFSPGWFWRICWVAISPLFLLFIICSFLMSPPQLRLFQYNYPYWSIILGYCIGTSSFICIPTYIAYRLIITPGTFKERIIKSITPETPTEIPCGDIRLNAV
Please state the figure in µM; there is no need to write the unit.

Some solved cases for reference:
[
  {
    "smiles_record": "C=CCN(C)C(=O)[C@@]1(c2ccsc2)C[C@H]1CN",
    "IC50, µM": 0.06
  },
  {
    "smiles_record": "CCN(CC)C(=O)[C@@]1(c2sc(Cl)c(Cl)c2Cl)C[C@H]1CN",
    "IC50, µM": 2
  },
  {
    "smiles_record": "CCN(CC)C(=O)[C@@]1(c2cc3cc(F)ccc3s2)C[C@H]1CN",
    "IC50, µM": 0.29
  },
  {
    "smiles_record": "CCN(CC)C(=O)[C@@]1(c2cccnc2)C[C@H]1CN",
    "IC50, µM": 4
  }
]

# IC50 (compound: `CCN(CC)C(=O)[C@@]1(c2nc3ccccc3s2)C[C@H]1CN` ) is 9.6

# IC50 (compound: `CCN(CC)C(=O)[C@@]1(c2cc(Cl)c(Cl)s2)C[C@H]1CN` ) is 2.2

---

Form field: pIC50 (one value per entry).
molecular target: UniProtKB P31645
# pIC50 = -log10(concentration in molar units)

[
  {
    "smiles_record": "CCN(CC)C(=O)[C@@]1(c2ccccn2)C[C@H]1CN",
    "system": "UniProtKB P31645",
    "pIC50": 5.46
  },
  {
    "smiles_record": "C#CCN(C)C(=O)[C@@]1(c2ccsc2)C[C@H]1CN",
    "system": "UniProtKB P31645",
    "pIC50": 7.47
  },
  {
    "smiles_record": "NC[C@@H]1C[C@@]1(C(=O)N1CCCc2ccccc21)c1ccsc1",
    "system": "UniProtKB P31645",
    "pIC50": 6.38
  },
  {
    "smiles_record": "NC[C@@H]1C[C@@]1(C(=O)N1C=COc2ccccc21)c1ccsc1",
    "system": "UniProtKB P31645",
    "pIC50": 6.47
  },
  {
    "smiles_record": "COCCN(C)C(=O)[C@@]1(c2ccsc2)C[C@H]1CN",
    "system": "UniProtKB P31645",
    "pIC50": 6.23
  },
  {
    "smiles_record": "C=C(F)CN(CCOC)C(=O)[C@@]1(c2ccsc2)C[C@H]1CN",
    "system": "UniProtKB P31645",
    "pIC50": 7.40
  },
  {
    "smiles_record": "C#CCN(CC#C)C(=O)[C@@]1(c2ccsc2)C[C@H]1CN",
    "system": "UniProtKB P31645",
    "pIC50": 7.08
  },
  {
    "smiles_record": "CCN(CC)C(=O)[C@@]1(c2cc3ccccc3s2)C[C@H]1CN",
    "system": "UniProtKB P31645",
    "pIC50": 6.21
  },
  {
    "smiles_record": "CCN(CC)C(=O)[C@@]1(c2ccc(Br)s2)C[C@H]1CN",
    "system": "UniProtKB P31645",
    "pIC50": 6.46
  }
]

# pIC50 (compound: `C=CCN(CCOC)C(=O)[C@@]1(c2ccsc2)C[C@H]1CN` ) is 7.33
